# Tested on: Aspergillus niger
# Protocol description: Antimicrobial activity against Aspergillus niger CGMCC3.316 after 48 hrs by modified microdilution method
# Assay type: functional
# Recorded conditions: CGMCC3.316, 48 h
Measure: MIC

{"Compound": "CCOc1ccc2[nH]c3c(c2c1)C[C@]1(C)[C@H]2CC=C4[C@@H]5[C@@H](C)[C@H](C)CC[C@]5(C(=O)OC)CC[C@@]4(C)[C@]2(C)CC[C@H]1C3(C)C", "Test target": "Aspergillus niger", "Test result": "> 100 µg/mL"}
{"Compound": "COc1ccc2[nH]c3c(c2c1)C[C@]1(C)[C@H]2CC=C4[C@@H]5[C@@H](C)[C@H](C)CC[C@]5(C(=O)O)CC[C@@]4(C)[C@]2(C)CC[C@H]1C3(C)C", "Test target": "Aspergillus niger", "Test result": "> 100 µg/mL"}
{"Compound": "COc1cccc2c3c([nH]c12)C(C)(C)[C@@H]1CC[C@]2(C)[C@H](CC=C4[C@@H]5[C@@H](C)[C@H](C)CC[C@]5(C(=O)O)CC[C@]42C)[C@@]1(C)C3", "Test target": "Aspergillus niger", "Test result": "> 100 µg/mL"}
{"Compound": "C[C@H]1[C@H](C)CC[C@]2(C(=O)NCCCN(C)C)CC[C@]3(C)C(=CC[C@@H]4[C@@]5(C)Cc6c([nH]c7ccc(Br)cc67)C(C)(C)[C@@H]5CC[C@]43C)[C@H]12", "Test target": "Aspergillus niger", "Test result": "62.5 µg/mL"}
{"Compound": "COc1ccc2[nH]c3c(c2c1)C[C@]1(C)[C@H]2CC=C4[C@@H]5[C@@H](C)[C@H](C)CC[C@]5(C(=O)NCCCN(C)C)CC[C@@]4(C)[C@]2(C)CC[C@H]1C3(C)C", "Test target": "Aspergillus niger", "Test result": "31.2 µg/mL"}
{"Compound": "COC(=O)[C@]12CC[C@@H](C)[C@H](C)[C@H]1C1=CC[C@@H]3[C@@]4(C)Cc5c([nH]c6ccc(F)cc56)C(C)(C)[C@@H]4CC[C@@]3(C)[C@]1(C)CC2", "Test target": "Aspergillus niger", "Test result": "62.5 µg/mL"}

Q: Give the measured MIC for COC(=O)[C@]12CC[C@@H](C)[C@H](C)[C@H]1C1=CC[C@@H]3[C@@]4(C)Cc5c([nH]c6ccc(OC)cc56)C(C)(C)[C@@H]4CC[C@@]3(C)[C@]1(C)CC2
A: > 100 µg/mL

Q: Give the measured MIC for COc1cccc2c3c([nH]c12)C(C)(C)[C@@H]1CC[C@]2(C)[C@H](CC=C4[C@@H]5[C@@H](C)[C@H](C)CC[C@]5(C(=O)NCCCN(C)C)CC[C@]42C)[C@@]1(C)C3
A: > 100 µg/mL

Q: Give the measured MIC for Cc1ccc2[nH]c3c(c2c1)C[C@]1(C)[C@H]2CC=C4[C@@H]5[C@@H](C)[C@H](C)CC[C@]5(C(=O)NCCCN(C)C)CC[C@@]4(C)[C@]2(C)CC[C@H]1C3(C)C
A: 62.5 µg/mL

Q: Give the measured MIC for C[C@H]1[C@H](C)CC[C@]2(C(=O)O)CC[C@]3(C)C(=CC[C@@H]4[C@@]5(C)Cc6c([nH]c7ccc(Br)cc67)C(C)(C)[C@@H]5CC[C@]43C)[C@H]12
A: 31.2 µg/mL

Q: Give the measured MIC for CC(=O)N1CCN(c2ccc(OCC3COC(Cn4ccnc4)(c4ccc(Cl)cc4Cl)O3)cc2)CC1 (stereo not drawn)
A: 7.8 µg/mL

Q: Give the measured MIC for C[C@H]1[C@H](C)CC[C@]2(C(=O)NCCCN(C)C)CC[C@]3(C)C(=CC[C@@H]4[C@@]5(C)Cc6c([nH]c7ccccc67)C(C)(C)[C@@H]5CC[C@]43C)[C@H]12
A: 31.2 µg/mL

Q: Give the measured MIC for C[C@H]1[C@H](C)CC[C@]2(C(=O)O)CC[C@]3(C)C(=CC[C@@H]4[C@@]5(C)Cc6c([nH]c7ccccc67)C(C)(C)[C@@H]5CC[C@]43C)[C@H]12
A: > 100 µg/mL

Q: Give the measured MIC for C[C@H]1[C@H](C)CC[C@]2(C(=O)O)CC[C@]3(C)C(=CC[C@@H]4[C@@]5(C)Cc6c([nH]c7ccc(Cl)cc67)C(C)(C)[C@@H]5CC[C@]43C)[C@H]12
A: > 100 µg/mL

Q: Give the measured MIC for Cc1ccc2[nH]c3c(c2c1)C[C@]1(C)[C@H]2CC=C4[C@@H]5[C@@H](C)[C@H](C)CC[C@]5(C(=O)O)CC[C@@]4(C)[C@]2(C)CC[C@H]1C3(C)C
A: > 100 µg/mL

Q: Give the measured MIC for COC(=O)[C@]12CC[C@@H](C)[C@H](C)[C@H]1C1=CC[C@@H]3[C@@]4(C)Cc5c([nH]c6c(OC)cccc56)C(C)(C)[C@@H]4CC[C@@]3(C)[C@]1(C)CC2
A: > 100 µg/mL

Q: Give the measured MIC for C[C@H]1[C@H](C)CC[C@]2(C(=O)O)CC[C@]3(C)C(=CC[C@@H]4[C@@]5(C)CCC(=O)C(C)(C)[C@@H]5CC[C@]43C)[C@H]12
A: > 100 µg/mL

Q: Give the measured MIC for CCOc1ccc2[nH]c3c(c2c1)C[C@]1(C)[C@H]2CC=C4[C@@H]5[C@@H](C)[C@H](C)CC[C@]5(C(=O)NCCCN(C)C)CC[C@@]4(C)[C@]2(C)CC[C@H]1C3(C)C
A: > 100 µg/mL
